Below, each entry is listed alongside its reported thermal shift delta Tm.
Tested on: LOC_OS01G14860-cb001
Method summary: thermal shift delta Tm vs DMSO control; higher = stronger stabilization (binding);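 also: purified Escherichia coli-expressed rice kinase domain construct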
Cond: 12.5 µM; protein concentration 2 µM
The response must be a number in °C with no trailing unit.

The cases that follow already have their thermal shift delta Tm on record.
Consider the compound shown here: `C=C(C)[C@@H]1CC[C@]2(C)CC[C@]3(C)[C@H](CC[C@@H]4[C@@]5(C)CC[C@H](O)C(C)(C)[C@@H]5CC[C@]43C)[C@@H]12` What is its recorded thermal shift delta Tm? 0.11

Cool, now `CCCCNc1ncc2c(-c3ccc(CN4CCN(C)CC4)cc3)cn([C@H]3CC[C@H](O)CC3)c2n1` 2.44

Cool, now `c1cncc(CN2CCC(n3ncc4c(N5CCOCC5)nc(-c5ccc6[nH]ccc6c5)nc43)CC2)c1` 0.21

Now for the compound whose thermal shift delta Tm we want.
Consider the compound shown here: `Cc1cc(O)c2c(c1)C(=O)c1cccc(O)c1C2=O` What is its recorded thermal shift delta Tm? 0.31

---

Below, each entry is listed alongside its reported thermal shift delta Tm.
Test system: LOC_OS01G21960-cb002
Method summary: thermal shift delta Tm vs DMSO control; higher = stronger stabilization (binding)
Cond: 12.5 µM; protein concentration 2 µM
The response must be a number in °C with no trailing unit.

The cases that follow already have their thermal shift delta Tm on record.
Could you share what thermal shift delta Tm was measured for `CO[C@H]1CC[C@H](N2C(=O)CNc3ncc(-c4ccc(C(C)(C)O)nc4)nc32)CC1` , tested on LOC_OS01G21960-cb002? 1.01

Cool, now `NC1(c2ccc(-c3nc4ccn5c(=O)[nH]nc5c4cc3-c3ccccc3)cc2)CCC1` -0.02

Cool, now `CCc1nc(-c2cccc(C)c2)c(-c2ccnc(NC(=O)c3ccccc3)c2)s1` -0.03

Continuing:
Could you share what thermal shift delta Tm was measured for `COc1ccc(-c2ccc3c(N4CCOCC4)nc(N4C[C@@H](C)O[C@@H](C)C4)nc3n2)cc1CO` , tested on LOC_OS01G21960-cb002? -0.07

Cool, now `CNC(=O)c1ccc(-c2cnc3ncc(Cc4ccc5ncccc5c4)n3n2)cc1F` 0.73

Cool, now `C[C@@H]1COCCN1c1cc(C2([S@](C)(=N)=O)CC2)nc(-c2cc[nH]c3nccc2-3)n1` -0.02

Cool, now `Oc1ccc(-c2nc(-c3ccc(F)cc3)c(-c3ccncc3)[nH]2)cc1` 0.98

Cool, now `CC1(C)C=Cc2c(ccc3c2OC[C@@H](c2ccc(O)cc2O)C3)O1` 1.14

Cool, now `CN1CCN(c2ccc(Nc3cc(-c4cccc(-n5ccc6cc(C7CC7)cc(F)c6c5=O)c4CO)cn(C)c3=O)nc2)CC1` 0.86

Cool, now `Nc1ccc(-c2ccc3ncc4ccc(=O)n(-c5cccc(C(F)(F)F)c5)c4c3c2)cn1` 1.41

Cool, now `NC(=O)c1cnc(N[C@@H]2CCCC[C@@H]2N)nc1Nc1cccc(-n2nccn2)c1` 1.47

Cool, now `COc1cc2ncnc(Nc3ccc(F)c(Cl)c3)c2cc1NC(=O)/C=C/CN1CCCCC1` 1.27

Cool, now `CC(C)(C)S(=O)(=O)c1ccc2nccc(Nc3n[nH]c4ccc(F)cc34)c2c1` 0.28

Cool, now `CC(C)Nc1cc(-c2c[nH]c(C(=O)N[C@H](CO)c3cccc(Cl)c3)c2)c(Cl)cn1` 1.37
